Taken from patent US7101878B1.

# tested system: mouse GnRH receptor (Mus musculus, UniProt Q01776)
# Construct: expressed in transfected cells; host or cells: 293 cells
# Sequence (Q01776 whole entry): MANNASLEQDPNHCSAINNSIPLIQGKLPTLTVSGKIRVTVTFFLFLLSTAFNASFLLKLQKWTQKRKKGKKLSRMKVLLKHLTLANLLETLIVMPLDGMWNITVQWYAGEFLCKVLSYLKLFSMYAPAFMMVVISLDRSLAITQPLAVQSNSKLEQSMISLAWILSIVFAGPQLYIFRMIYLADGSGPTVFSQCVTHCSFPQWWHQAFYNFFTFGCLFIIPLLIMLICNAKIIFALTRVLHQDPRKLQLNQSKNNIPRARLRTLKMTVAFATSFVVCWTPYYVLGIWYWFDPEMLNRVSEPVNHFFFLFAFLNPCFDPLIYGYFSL
# experiment notes: Radioligand binding, 125I-GnRH-A, 293 cells expressing mouse GnRH receptors
# cond: 10 uM; read-out: % Inhib. @ 10 uM mGnRH
property measured: inhibition at 10 µM (%)

{"compound": "Cc1cc2c(cc1Cc1ccc(C(=O)N3CCC(N4CCCC4)CC3)o1)C(C)(C)CCC2(C)C [drawing 1458]", "tested system": "mouse GnRH receptor (Mus musculus, UniProt Q01776)", "property measured": "inhibition at 10 µM", "numeric value": 96}
{"compound": "Cc1cc2c(cc1Cc1ccc(C(=O)NCC[N+](C)(C)C)o1)C(C)(C)CCC2(C)C", "tested system": "mouse GnRH receptor (Mus musculus, UniProt Q01776)", "property measured": "inhibition at 10 µM", "numeric value": 49}
{"compound": "Cc1cc2c(cc1Cc1ccc(C(=O)N(Cc3ccncc3)Cc3ccc4c(c3)OCO4)o1)C(C)(C)CCC2(C)C", "tested system": "mouse GnRH receptor (Mus musculus, UniProt Q01776)", "property measured": "inhibition at 10 µM", "numeric value": 91}
{"compound": "Cc1cc2c(cc1Cc1ccc(C(=O)N(C)CCCN(C)C)o1)C(C)(C)CCC2(C)C [drawing 1516]", "tested system": "mouse GnRH receptor (Mus musculus, UniProt Q01776)", "property measured": "inhibition at 10 µM", "numeric value": 92}
{"compound": "Cc1cc2c(cc1Cc1ccc(C(=O)N3CCc4ccccc4C3Cc3ccccc3)o1)C(C)(C)CCC2(C)C (stereo not drawn) [drawing 1515]", "tested system": "mouse GnRH receptor (Mus musculus, UniProt Q01776)", "property measured": "inhibition at 10 µM", "numeric value": 46}
{"compound": "Cc1cc2c(cc1Cc1ccc(C(=O)N3CCN(CCCN(C)C)CC3)o1)C(C)(C)CCC2(C)C", "tested system": "mouse GnRH receptor (Mus musculus, UniProt Q01776)", "property measured": "inhibition at 10 µM", "numeric value": 96}
{"compound": "Cc1cc2c(cc1Cc1ccc(C(=O)N3CCCC(C)C3)o1)C(C)(C)CCC2(C)C (stereo not drawn)", "tested system": "mouse GnRH receptor (Mus musculus, UniProt Q01776)", "property measured": "inhibition at 10 µM", "numeric value": 97}
{"compound": "CC(=O)N1CCCN(C(=O)c2ccc(Cc3cc4c(cc3C)C(C)(C)CCC4(C)C)o2)CC1 [drawing 1503]", "tested system": "mouse GnRH receptor (Mus musculus, UniProt Q01776)", "property measured": "inhibition at 10 µM", "numeric value": 73}
{"compound": "CCN(C(=O)c1ccc(Cc2cc3c(cc2C)C(C)(C)CCC3(C)C)o1)C1C2CCC3CC32C1c1ccccc1 (stereo not drawn)", "tested system": "mouse GnRH receptor (Mus musculus, UniProt Q01776)", "property measured": "inhibition at 10 µM", "numeric value": 49}
{"compound": "CCOC(CNC(=O)c1ccc(Cc2cc3c(cc2C)C(C)(C)CCC3(C)C)o1)OCC", "tested system": "mouse GnRH receptor (Mus musculus, UniProt Q01776)", "property measured": "inhibition at 10 µM", "numeric value": 100}
{"compound": "COC(CN(C)C(=O)c1ccc(Cc2cc3c(cc2C)C(C)(C)CCC3(C)C)o1)OC [drawing 1549]", "tested system": "mouse GnRH receptor (Mus musculus, UniProt Q01776)", "property measured": "inhibition at 10 µM", "numeric value": 90}
{"compound": "Cc1cc2c(cc1Cc1ccc(C(=O)N3CCC(O)(c4ccc(Cl)cc4)CC3)o1)C(C)(C)CCC2(C)C [drawing 1423]", "tested system": "mouse GnRH receptor (Mus musculus, UniProt Q01776)", "property measured": "inhibition at 10 µM", "numeric value": 43}
{"compound": "CCCCCNC(=O)c1ccc(Cc2cc3c(cc2C)C(C)(C)CCC3(C)C)o1", "tested system": "mouse GnRH receptor (Mus musculus, UniProt Q01776)", "property measured": "inhibition at 10 µM", "numeric value": 91}
{"compound": "Cc1cc2c(cc1Cc1ccc(C(=O)N(CCCCO)Cc3ccccc3)o1)C(C)(C)CCC2(C)C", "tested system": "mouse GnRH receptor (Mus musculus, UniProt Q01776)", "property measured": "inhibition at 10 µM", "numeric value": 99}
{"compound": "Cc1cc2c(cc1Cc1ccc(C(=O)N3CCN(C(=O)OC(C)(C)C)CC3)o1)C(C)(C)CCC2(C)C", "tested system": "mouse GnRH receptor (Mus musculus, UniProt Q01776)", "property measured": "inhibition at 10 µM", "numeric value": 90}
{"compound": "CCCC(CO)NC(=O)c1ccc(Cc2cc3c(cc2C)C(C)(C)CCC3(C)C)o1 (stereo not drawn) [drawing 1547]", "tested system": "mouse GnRH receptor (Mus musculus, UniProt Q01776)", "property measured": "inhibition at 10 µM", "numeric value": 99}
{"compound": "Cc1cc2c(cc1Cc1ccc(C(=O)N3Cc4ccccc4CC3CO)o1)C(C)(C)CCC2(C)C (stereo not drawn)", "tested system": "mouse GnRH receptor (Mus musculus, UniProt Q01776)", "property measured": "inhibition at 10 µM", "numeric value": 61}
{"compound": "COc1ccccc1C1CCN(C(=O)c2ccc(Cc3cc4c(cc3C)C(C)(C)CCC4(C)C)o2)CC1", "tested system": "mouse GnRH receptor (Mus musculus, UniProt Q01776)", "property measured": "inhibition at 10 µM", "numeric value": 63}
{"compound": "C=CCN(C(=O)c1ccc(Cc2cc3c(cc2C)C(C)(C)CCC3(C)C)o1)C1CCCCC1", "tested system": "mouse GnRH receptor (Mus musculus, UniProt Q01776)", "property measured": "inhibition at 10 µM", "numeric value": 65}
{"compound": "CC(=O)N1CCN(C(=O)c2ccc(Cc3cc4c(cc3C)C(C)(C)CCC4(C)C)o2)CC1 [drawing 1424]", "tested system": "mouse GnRH receptor (Mus musculus, UniProt Q01776)", "property measured": "inhibition at 10 µM", "numeric value": 71}
{"compound": "CCN1CC(NC(=O)c2ccc(Cc3cc4c(cc3C)C(C)(C)CCC4(C)C)o2)CN1CC", "tested system": "mouse GnRH receptor (Mus musculus, UniProt Q01776)", "property measured": "inhibition at 10 µM", "numeric value": 91}
